target: T1, cynomolgus insulin receptor (INSR) on CHOK1 cells (cyno, UniProt A0A7N9D6H3 48-1390); assay: binding to CHO cells expressing cyno INSR; 1st column headed CHO Cyno INSR; quantity and unit not printed [cont'd]
T1 construct: whole, on cells; CHOK1 cells over-expressing cyno INSR; also called cynomologous INSR ortholog; monkey INSR
The following binders are shown together with reported CHO Cyno INSR values.
Hey, just send me the number, nothing else.

Before answering, review these 3 worked examples.
>>> reported_measurement("RHF.15.05896.075 (Fab, V domains shown, Untagged Fab) VH: EVQLVETGGGVVQPGRSLRLSCAASGFKFSSYAMHWVRQAPGKGLEWVAVISYSGSNKYYADSVKGRFTISRDNSKNTLYLQMNSLRAEDTAVYYCARHEWGFGYDYWGQGTTVTVSS VL: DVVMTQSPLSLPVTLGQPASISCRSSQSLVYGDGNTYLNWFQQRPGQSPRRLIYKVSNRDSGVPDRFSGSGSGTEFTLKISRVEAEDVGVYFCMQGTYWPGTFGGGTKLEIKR")
0.728
>>> reported_measurement("RHF.15.05896.020 (Fab, V domains shown, Untagged Fab) VH: EVQLVETGGGVVQPGRSLRLSCAASGFKFSSYAMHWVRQAPGKGLEWVAVISWSGSNKYYADSVKGRFTISRDNSKNTLYLQMNSLRAEDTAVYYCARHEWGFGFDEWGQGTTVTVSS VL: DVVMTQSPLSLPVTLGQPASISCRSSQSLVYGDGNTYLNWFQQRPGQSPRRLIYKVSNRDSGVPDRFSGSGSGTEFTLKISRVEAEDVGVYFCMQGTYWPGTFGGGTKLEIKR")
0.911
>>> reported_measurement("XPA.15.247.2.018 Fab (Fab, V domains shown, Monomeric Fab; also called XPA.247.2.018) VH: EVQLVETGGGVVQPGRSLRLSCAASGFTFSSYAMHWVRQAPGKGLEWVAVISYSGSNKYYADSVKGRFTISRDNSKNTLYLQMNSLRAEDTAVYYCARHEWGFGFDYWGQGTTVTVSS VL: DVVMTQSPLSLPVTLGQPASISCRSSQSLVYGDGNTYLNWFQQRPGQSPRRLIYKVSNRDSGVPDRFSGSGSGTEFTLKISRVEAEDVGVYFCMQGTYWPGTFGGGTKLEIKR")
2.62

Data request: Name the reported CHO Cyno INSR value associated with the binder RHF.15.05896.068 (Fab, V domains shown, Untagged Fab) VH: EVQLVETGGGVVQPGRSLRLSCAASGFKFSSYAMHWVRQAPGKGLEWVAVISYSGGNKYYADSVKGRFTISRDNSKNTLYLQMNSLRAEDTAVYYCARHEWGFGYDYWGQGTTVTVSS VL: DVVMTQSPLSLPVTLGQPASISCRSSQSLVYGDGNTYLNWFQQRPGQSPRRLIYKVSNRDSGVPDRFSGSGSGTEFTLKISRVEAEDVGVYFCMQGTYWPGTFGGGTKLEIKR
Data returned: 0.854
